Please respond with reported pIC50 for every item in the list.
test: Antagonist activity at human CXCR3 expressed in mouse L1.2 cells assessed as inhibition of IP10-induced chemotaxis after 4 hrs
One number for each entry, as −log10 of the molar value.

Dear colleague, could you send me pIC50 for each of the items below? Thanks.
1. COc1ccc(S(=O)(=O)N(Cc2ccc(C(=O)NCC3CC3)cc2)Cc2cccnc2)cc1
2. N#Cc1ccc(S(=O)(=O)N(Cc2ccc(C(=O)O)c(F)c2)Cc2ccccn2)cc1
3. O=S(=O)(c1ccc(Cl)cc1)N(Cc1ccc(-c2nnn[nH]2)c(F)c1)Cc1ccccn1
4. COc1ccc(S(=O)(=O)N(Cc2ccccc2)Cc2ccc(C(=O)O)cc2)cc1
5. CCOc1ccc(S(=O)(=O)N(Cc2ccc(-c3nnn[nH]3)cc2)Cc2ccccn2)cc1
6. O=C(O)c1ccc(CN(Cc2ccccc2)S(=O)(=O)c2ccc(Cl)cc2)cc1
7. COc1ccc(S(=O)(=O)N(Cc2ccccc2)Cc2ccc(C(=O)NCc3ccccc3)cc2)cc1

A)
[5.94, 5.97, 6.36, 5.19, 6.27, 5.53, 6.46]

Dear colleague, could you send me pIC50 for each of the items below? Thanks.
1. CCOc1ccc(S(=O)(=O)N(Cc2ccccc2)Cc2ccc(C(=O)NCC3CC3)cc2)cc1
2. O=C(NCC1CC1)c1ccc(CN(Cc2ccccc2)S(=O)(=O)c2ccc(Cl)cc2)cc1
3. O=C(NCc1cccc(Cl)c1)c1ccc(CN(Cc2ccccn2)S(=O)(=O)c2ccc(Cl)cc2)cc1
4. O=C(NCC1CC1)c1ccc(CN(Cc2ccccc2)S(=O)(=O)c2ccc(OC(F)(F)F)cc2)cc1

A)
[6.17, 5.70, 7.07, 5.25]

Dear colleague, could you send me pIC50 for each of the items below? Thanks.
1. O=C(NCC1CC1)c1ccc(CN(Cc2cccc(Cl)c2)S(=O)(=O)c2ccc(Cl)cc2)cc1
2. O=S(=O)(c1ccc(Cl)cc1)N(CCc1cc2ccccc2cn1)Cc1ccc(-c2nnn[nH]2)cc1
3. CC(C)(C)c1nc(CCN(Cc2ccc(-c3nnn[nH]3)cc2)S(=O)(=O)c2ccc(Cl)cc2)no1
4. COc1ccc(S(=O)(=O)N(Cc2ccccc2)Cc2ccc(C(=O)NCC3CC3)cc2)cc1

A)
6.03
6.04
6.60
6.16
